Molecular target: EGFR (Homo sapiens)
Sequence (P00533 25-1210): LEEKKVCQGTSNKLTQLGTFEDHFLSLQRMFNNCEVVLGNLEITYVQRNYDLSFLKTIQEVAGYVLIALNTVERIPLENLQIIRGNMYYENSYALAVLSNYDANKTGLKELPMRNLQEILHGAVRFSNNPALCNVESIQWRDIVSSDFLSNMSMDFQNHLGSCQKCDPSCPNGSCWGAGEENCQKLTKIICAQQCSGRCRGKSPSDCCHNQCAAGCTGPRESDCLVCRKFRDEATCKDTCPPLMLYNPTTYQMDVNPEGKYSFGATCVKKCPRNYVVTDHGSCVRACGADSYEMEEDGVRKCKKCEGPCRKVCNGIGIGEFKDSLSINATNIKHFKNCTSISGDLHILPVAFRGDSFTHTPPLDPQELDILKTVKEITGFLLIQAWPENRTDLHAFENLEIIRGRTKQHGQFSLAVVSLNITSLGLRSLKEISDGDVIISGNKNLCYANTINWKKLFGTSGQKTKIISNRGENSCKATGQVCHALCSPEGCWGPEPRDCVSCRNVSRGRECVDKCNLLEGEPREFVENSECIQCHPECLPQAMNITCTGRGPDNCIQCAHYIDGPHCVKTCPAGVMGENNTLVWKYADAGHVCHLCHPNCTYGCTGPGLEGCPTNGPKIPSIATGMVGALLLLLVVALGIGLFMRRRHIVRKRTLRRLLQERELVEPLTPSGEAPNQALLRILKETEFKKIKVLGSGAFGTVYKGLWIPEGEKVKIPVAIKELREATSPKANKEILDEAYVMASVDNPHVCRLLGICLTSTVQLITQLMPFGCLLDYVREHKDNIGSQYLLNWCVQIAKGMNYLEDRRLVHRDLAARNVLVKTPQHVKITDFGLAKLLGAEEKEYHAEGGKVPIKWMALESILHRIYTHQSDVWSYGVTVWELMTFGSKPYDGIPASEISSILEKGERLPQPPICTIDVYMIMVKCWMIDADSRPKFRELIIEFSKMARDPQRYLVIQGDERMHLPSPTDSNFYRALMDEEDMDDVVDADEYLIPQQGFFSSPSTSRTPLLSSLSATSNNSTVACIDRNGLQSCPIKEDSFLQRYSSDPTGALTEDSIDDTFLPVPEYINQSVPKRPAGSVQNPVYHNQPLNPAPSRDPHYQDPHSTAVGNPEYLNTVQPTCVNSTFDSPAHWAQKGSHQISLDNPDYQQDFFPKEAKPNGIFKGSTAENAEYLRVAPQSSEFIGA
Assay type: biochemical
Details: test concentration not given; conclusion says EGFR in A549 cancer cells
RECORDED ENDPOINT: % inhibition of EGFR
Remember to quote the unit after the number.

Answered cases to consult:
NS(=O)(=O)c1ccc(-n2c(SCC(=O)Nc3ccccc3)nc3cc4ccccc4cc3c2=O)cc1 ... 55.58%
Cc1cccc(NC(=O)CSc2nc3cc4ccccc4cc3c(=O)n2-c2ccc(S(N)(=O)=O)cc2)c1 ... 66.85%
Cc1ccccc1NC(=O)CSc1nc2cc3ccccc3cc2c(=O)n1-c1ccc(S(N)(=O)=O)cc1 ... 84.31%
Cc1ccc(NC(=O)CSc2nc3cc4ccccc4cc3c(=O)n2-c2ccc(S(N)(=O)=O)cc2)cc1 ... 90.21%

# context switch: different compound, same % inhibition of EGFR
For EGFR (Homo sapiens), provide % inhibition of EGFR of `COc1cc(NC(=O)CSc2nc3cc4ccccc4cc3c(=O)n2-c2ccc(S(N)(=O)=O)cc2)cc(OC)c1OC` please.
58.04%
